Here the recorded log10 of Ki is given for each entry.
TARGET: h-GABA-A α5β3γ2 (Homo sapiens, UniProt P18507+P31644)
Construct: expressed in transfected cells; host or cells: Xenopus laevis oocytes, micro-injected with subunit RNA
METHOD DESCRIPTION: [3H]flumazenil competition binding assay on membranes of HEK293 cells expressing GABAA receptors
ASSAY SETUP: Table 1; displacement of [3H]-Flumazenil (0.5 nM), HEK293 cells expressing human receptors, means of two determinations
Method: The affinity of compounds at GABAA receptor subtypes was measured by competition for [3H]flumazenil (85 Ci/mmol; Roche) binding to HEK293 cells expressing rat (stably transfected) or human (transiently transfected) receptors of composition α1β3γ2, α2β3γ2, α3β3γ2 and α5β3γ2. […]
Could you please treat all values as log10 of Ki in nM?

Answered examples (8):
MOLECULE: Cn1nnc(-c2ccc(Cl)cc2F)c1Cn1ncc(N2CC3(CCCO3)C2)cc1=O [Example 29]
log10 of Ki: 1.18

MOLECULE: Cn1nnc(-c2ccc(C(F)(F)F)cc2F)c1Cn1ncc(N2CC(OCC(F)(F)F)C2)cc1=O [Example 74]
log10 of Ki: 1.07

MOLECULE: CCOC1CN(c2cnn(Cc3c(-c4ccc(Cl)cc4F)nnn3C)c(=O)c2)C1 [Example 27]
log10 of Ki: 0.91

MOLECULE: Cc1nnn(-c2ccc(Cl)cc2F)c1Cn1ncc(-c2cnn(C3CC3)c2)cc1=O [Example 65]
log10 of Ki: 1.68

MOLECULE: CCOC1CN(c2cnn(Cc3c(C)nnn3-c3ccc(Cl)cc3F)c(=O)c2)C1 [Example 23]
log10 of Ki: 1.85

MOLECULE: Cn1nnc(-c2ccc(Cl)cc2F)c1Cn1ncc(N2CC(OCC3CC3)C2)cc1=O [Example 28]
log10 of Ki: 1.26

MOLECULE: Cc1nnn(-c2ccc(Cl)cc2)c1Cn1ncc(N(C)C)cc1=O [Example 13]
log10 of Ki: 1.50

MOLECULE: C[C@@H]1CN(c2cnn(Cc3c(-c4ccc(Cl)cc4F)nnn3C)c(=O)c2)C[C@H](C)O1 [Example 3]
log10 of Ki: 0.08

Q) // fetch log10 of Ki given entry CC(C)N1CCN(c2cnn(Cc3c(-c4ccc(Cl)cc4F)nnn3C)c(=O)c2)C[C@@H]1C [Example 44]
A) 0.64

Q) State its log10 of Ki: C[C@@H]1CN(c2cnn(Cc3c(-c4ccc(F)cc4F)nnn3C)c(=O)c2)C[C@H](C)O1 [Example 58]
A) 0.85

Q) Return log10 of Ki for the following molecule: CCn1nnc(-c2ccc(Cl)cc2F)c1Cn1ncc(N2CC(OC(F)F)C2)cc1=O [Example 88]
A) 0.85

Q) Determine its reported log10 of Ki: CCCOC1CN(c2cnn(Cc3c(-c4ccc(Cl)cc4F)nnn3C)c(=O)c2)C1 [Example 51]
A) 1.33

Q) Could you please provide reported log10 of Ki for CCn1nnc(-c2ccc(Cl)cc2F)c1Cn1ncc(N2CC(Oc3ccc(Cl)nc3)C2)cc1=O [Example 101] ? Thanks!
A) 0.96

Q) Report measured log10 of Ki; entry is COC1CN(c2cnn(Cc3c(-c4ccc(Cl)cc4F)nnn3C)c(=O)c2)C1 [Example 26]
A) 1.11

Q) For the molecule Cn1nnc(-c2ccc(C(F)(F)F)cc2F)c1Cn1ncc(N2CC(Oc3cnccn3)C2)cc1=O [Example 89] , give its measured log10 of Ki value.
A) 0.97

Q) Give the reported log10 of Ki for this molecule. Cc1ccc(-c2nnn(C)c2Cn2ncc(N3CCOCC3)cc2=O)cn1 [Example 9]
A) 1.23

Q) Specify measured log10 of Ki for Cc1nnn(-c2ccc(Cl)cc2F)c1Cn1ncc(N2CCN(C(=O)C3CC3)CC2)cc1=O [Example 6] .
A) 1.86

Q) Give the measured log10 of Ki for Cc1nccc(OC2CN(c3cnn(Cc4c(-c5ccc(Cl)cc5F)nnn4C)c(=O)c3)C2)n1 [Example 99]
A) 0.66

Q) Assign log10 of Ki to the following record: Cc1ccnn1C1CN(c2cnn(Cc3c(-c4ccc(Cl)cc4F)nnn3C)c(=O)c2)C1 [Example 113]
A) 1.69

Q) Fill in reported log10 of Ki for this entry: CCn1nnc(-c2ccc(Cl)cc2F)c1Cn1ncc(N2CC(OC(C)(C)C)C2)cc1=O [Example 97]
A) 1.65

Q) Assign log10 of Ki to the following record: COc1ncc(-c2cnn(Cc3c(C)nnn3-c3ccc(Cl)cc3F)c(=O)c2)cc1Cl [Example 68]
A) 1.51
